test system: HL-60(TB) leukemia; experiment: NCI tumour cell line growth inhibition, 48 h
Everything with TGI lower than 9 µM is no (0); everything else, including exactly 9 µM, is yes (1).

As a guide, the following entries are already answered.
CC[C@@H](CCCC[C@@H]1CC[C@H]2CC(=O)C[C@@H]12)OC; yes (1)
CN(C)CCN1C(=O)CC[C@@]2(C)C1=CC[C@@H]1[C@@H]2CC[C@@]2(C)[C@H]1CC[C@]2(C)O; yes (1)
O=[N+]([O-])c1ccc(-c2ccc(/C=N/n3c(-c4ccc(Cl)cc4)n[nH]c3=S)o2)cc1; yes (1)
CSCCC(NCc1c(O)ccc2ccc(=O)oc12)C(=O)O (stereo not given); yes (1)
CC(=O)[CH-]C(=O)c1ccccc1.CC(=O)[CH-]C(=O)c1ccccc1.CCN(CC)CC[O-].CCN(CC)CC[O-].Cl.[Ti+4]; yes (1)

Req: Has O=C(c1ccccc1)c1nn(-c2ccc(Cl)cc2)c2nc3nc(-c4ccccc4)cc(=O)n3nc12 a recorded TGI greater than or equal to 9 µM?
Resp: yes (1)

Req: Has Cc1ccc(-c2c(C#N)c(N)nc(N3CCOCC3)c2C#N)o1 a recorded TGI greater than or equal to 9 µM?
Resp: yes (1)

Req: Has CCCCCCCCCCCCCCCCCCNC(=O)[C@H]1CSC(c2ccc(OC)c(F)c2)N1 (stereo not given in full) a recorded TGI greater than or equal to 9 µM?
Resp: no (0)

---

tested on: HCT-15 colon; test: NCI tumour cell line growth inhibition, 48 h; in the data active = GI50 below about 0.43 µM; inactive = the rest
Respond with a class label; see True (active), False (inactive)

Cn1cc(-c2ccc(=O)n(Cc3cccc(-c4ncc(OCCN5CCOCC5)cn4)c3)n2)cn1; False
C[C@H]1[C@H](OC(=O)CCC(=O)O)O[C@@H]2O[C@]3(C)CC[C@H]4[C@H](C)CC[C@@H]1[C@@]24OO3; True
N#C/C(=C\c1c(-c2ccccc2)[nH]c2ccccc12)C(=O)c1ccc(Cl)cc1; False
COc1ccccc1C(=O)/C=C/c1cc2cccc(OC)c2[nH]c1=O; True

# evaluate next
Req: Given O=[N+]([O-])c1ccc(Sc2ncccn2)c([N+](=O)[O-])c1 , state the outcome it received in this test.
Resp: False

---

system: HCC-2998 colon; assay: NCI tumour cell line growth inhibition, 48 h
Everything with TGI lower than 9 µM is FALSE; everything else, including exactly 9 µM, is TRUE.

OB([O][Hg][c]1ccccc1)[O][Hg][c]1ccccc1; FALSE
O/N=C1/C(=C/c2ccc(F)cc2)CCCC1C(NO)c1ccc(F)cc1 (stereo not given); TRUE
Cc1c(NC(=O)C(=O)N=NC(=O)c2ccncc2)c(O)c2ccccc2c1O; TRUE
O=c1[nH]c2cc(C(F)(F)F)ccc2nc1Cc1ccccc1; TRUE

Req: Has O=C(O)c1cccc(S(=O)(=O)NN2C(=O)CSC2c2ccccc2)c1 (stereo not given) a recorded TGI greater than or equal to 9 µM?
Resp: TRUE

Req: Has CC(O)c1c2c(cc3c1CC1(C3)Cc3cc4c(c(C(C)O)c3C1)CCC4)CCC2 (stereo not given) a recorded TGI greater than or equal to 9 µM?
Resp: TRUE

Req: Has O=C1c2ccccc2-c2c1c1ccccc1c(=O)n2CCO a recorded TGI greater than or equal to 9 µM?
Resp: TRUE

Req: Has CC1=C(C(=O)Nc2ccc([N+](=O)[O-])cc2)C(c2ccco2)C(C(=O)Nc2ccc([N+](=O)[O-])cc2)=C(C)N1 a recorded TGI greater than or equal to 9 µM?
Resp: TRUE

Req: Has CN1CCN(c2nc3ccccc3nc2C(=O)c2ccc(Cl)cc2)CC1 a recorded TGI greater than or equal to 9 µM?
Resp: TRUE

Req: Has COc1cc(C(=O)O)c([N+](=O)[O-])c(OC)c1OC a recorded TGI greater than or equal to 9 µM?
Resp: TRUE

Req: Has O=C1CC(=O)N(C2CCCCC2)C(=O)N1c1ccccc1S(=O)(=O)Oc1ccccc1 a recorded TGI greater than or equal to 9 µM?
Resp: TRUE

Req: Has CC[C@@H](CCCC[C@@H]1CC[C@H]2CC(=O)C[C@@H]12)OC a recorded TGI greater than or equal to 9 µM?
Resp: TRUE

Req: Has Cc1ccc(/C=C2\N=C(N3CCCCC3)NC2=O)cc1 a recorded TGI greater than or equal to 9 µM?
Resp: TRUE

Req: Has COc1ccc(N(C)c2nc(C)nc3ccccc23)cc1 a recorded TGI greater than or equal to 9 µM?
Resp: FALSE

Req: Has CCOC(=O)/C(C1=N[C@H](C(=O)OCC)CS1)=C(\C)O a recorded TGI greater than or equal to 9 µM?
Resp: TRUE

Req: Has O=[N+]([O-])c1cccc(N=C2c3ccccc3CN2c2cccc([N+](=O)[O-])c2)c1 a recorded TGI greater than or equal to 9 µM?
Resp: TRUE

Req: Has COc1ccc2c(c1)c1nn(CCN(C)C)c3ccc4c(=O)n(CCN(C)C)c(=O)n2c4c13 a recorded TGI greater than or equal to 9 µM?
Resp: FALSE

Req: Has CCOc1cc(/C=N\N(C)C)cc(/C=N\N(C)C)c1O a recorded TGI greater than or equal to 9 µM?
Resp: TRUE

Req: Has O/N=c1/ccn(O)c2ccccc12 a recorded TGI greater than or equal to 9 µM?
Resp: FALSE

Req: Has COc1ncnc2c1cnn2Cc1cn(COCC(O)CO)nn1 (stereo not given) a recorded TGI greater than or equal to 9 µM?
Resp: TRUE

Req: Has S=C(NNC1=NCCCN1)Nc1ccccc1 a recorded TGI greater than or equal to 9 µM?
Resp: TRUE

Req: Has NNC(=O)/C(=C/c1cccc([N+](=O)[O-])c1)NC(=O)c1ccccc1 a recorded TGI greater than or equal to 9 µM?
Resp: TRUE

Req: Has FC(F)(F)P1C2C=CC(CC2)C1(F)F (stereo not given) a recorded TGI greater than or equal to 9 µM?
Resp: TRUE

---

test system: 786-0 renal; experiment: NCI tumour cell line growth inhibition, 48 h
result_type: TGI

Some solved cases for reference:
CSCCC(NCc1c(O)ccc2ccc(=O)oc12)C(=O)O (centres undefined); > 100 µM
Cc1ccc(S(=O)(=O)NC(=O)NC(CO)C(=O)O)cc1 (centres undefined); > 100 µM
CCOP(=O)(OCC)C1C(=O)O[C@H]2CCCC[C@@H]12 (some centres undefined); > 100 µM

Req: Name the recorded TGI of the item O=C1C2=C(c3ccccc31)C(c1ccc(Cl)cc1)N1C(=O)CCSC1=N2 (centres undefined) in your answer.
Resp: > 100 µM

---

test system: HOP-62 NSCLC; assay: NCI tumour cell line growth inhibition, 48 h; in the data active = GI50 below about 0.43 µM; inactive = the rest
Respond with a class label; see y for active, n for inactive

As a guide, the following entries are already answered.
COc1cc2c(cc1OC)C(=O)C(Br)CC2 (stereo not drawn); n
O=C1C=C[C@]2(C[C@@H](c3cccc(C(F)(F)F)c3)O[C@@H](c3cccc(C(F)(F)F)c3)O2)O1; n
Nc1ccn(C=C=CCO)c(=O)n1; n

Req: Given COc1ccc(/C=C2\CN(C(=O)CCN3CCC(=NO)CC3)C/C(=C\c3ccc(OC)cc3)C2=O)cc1 , state the outcome it received in this test.
Resp: n

Req: Given O/N=C1\CCc2cc(-c3nc(C4CCNCC4)[nH]c3-c3ccncc3)ccc21 , state the outcome it received in this test.
Resp: n

Req: Given CCCCCCCCCCCCc1ccc(C(=O)/C=C/C(=O)O)cc1 , state the outcome it received in this test.
Resp: n

Req: Given O=C1/C(=C\c2ccc(Cl)cc2)CN(C(=S)Nc2ccccc2)C/C1=C\c1ccc(Cl)cc1 , state the outcome it received in this test.
Resp: y

Req: Given O=[N+]([O-])c1ccc(N/N=C\c2cc(Cl)ccc2O)nc1 , state the outcome it received in this test.
Resp: n

---

tested on: HOP-62 NSCLC; assay: NCI tumour cell line growth inhibition, 48 h
result_type: TGI

Req: Name the recorded TGI of the item CCOP(=O)(OCC)C1C(=O)O[C@H]2CCCC[C@@H]12 (stereo partly drawn) in your answer.
Resp: > 100 µM

Req: Name the recorded TGI of the item NC(N)=NC(CC(=O)O)c1ccccc1 (stereo not drawn) in your answer.
Resp: > 100 µM

Req: Name the recorded TGI of the item CN(C)CCN1C(=O)CC[C@@]2(C)C1=CC[C@@H]1[C@@H]2CC[C@@]2(C)[C@H]1CC[C@]2(C)O in your answer.
Resp: > 100 µM

---

test system: SNB-75 CNS; assay: NCI tumour cell line growth inhibition, 48 h
Measured TGI of individual entries

Some solved cases for reference:
CCOC(=O)c1c(O)[nH]c(=O)c(CC)c1C; > 100 µM
CC(=O)Nc1ccc(Nc2cc(=O)n(C)c(=O)[nH]2)cc1; > 100 µM
CC1(C)CC(=O)C2=C(C1)NC(SSC1=C(C#N)C(c3ccccc3)C3=C(CC(C)(C)CC3=O)N1)=C(C#N)C2c1ccccc1 (stereo unspecified); 53.3 µg/mL
O=S(=O)(c1ccc(NC(=S)N/N=C/c2ccccc2O)cc1)N1CCCCC1; > 65.2 µM
CC(C)=CC(=O)CC(=O)C(=O)Nc1ccc(C)c(C)c1; > 100 µM

Alright, here's another compound for you.
Req: Name the recorded TGI of the item NC(N)=NC(CC(=O)O)c1ccccc1 (stereo unspecified) in your answer.
Resp: > 100 µM

Values compiled from PubChem BioAssay (NCI).
